Overview of recorded Ki for various compounds
# target-entity: Cannabinoid receptor 2 (Homo sapiens, UniProt P34972)
# Sequence (P34972 whole entry): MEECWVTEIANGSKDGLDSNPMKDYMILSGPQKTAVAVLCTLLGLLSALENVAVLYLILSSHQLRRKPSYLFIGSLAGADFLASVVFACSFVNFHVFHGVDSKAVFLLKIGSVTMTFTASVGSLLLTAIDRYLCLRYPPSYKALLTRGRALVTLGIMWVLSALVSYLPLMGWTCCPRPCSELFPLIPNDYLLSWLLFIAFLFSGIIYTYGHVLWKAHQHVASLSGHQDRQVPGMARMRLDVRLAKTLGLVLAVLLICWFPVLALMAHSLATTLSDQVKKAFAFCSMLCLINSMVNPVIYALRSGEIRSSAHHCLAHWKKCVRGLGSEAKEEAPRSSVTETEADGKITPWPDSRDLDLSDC
recorded-metric: Ki

1. CCCn1cc(C(=O)c2ccc(Br)c3ccccc23)c2ccccc21: 27 nM
2. CCCCCn1c(C)c(C(=O)c2ccc(F)c3ccccc23)c2ccccc21: 2.2 nM
3. CCCCCn1c(C)c(C(=O)c2ccc(I)c3ccccc23)c2ccccc21: 2.1 nM
4. CCCn1c(C)c(C(=O)c2ccc(I)c3ccccc23)c2ccccc21: 20 nM
5. CCCCCn1cc(C(=O)c2cccc3cccc(Br)c23)c2ccccc21: 5.4 nM

---

# target-entity: Cannabinoid receptor 1 (Homo sapiens, UniProt P21554)
# Sequence (P21554 whole entry): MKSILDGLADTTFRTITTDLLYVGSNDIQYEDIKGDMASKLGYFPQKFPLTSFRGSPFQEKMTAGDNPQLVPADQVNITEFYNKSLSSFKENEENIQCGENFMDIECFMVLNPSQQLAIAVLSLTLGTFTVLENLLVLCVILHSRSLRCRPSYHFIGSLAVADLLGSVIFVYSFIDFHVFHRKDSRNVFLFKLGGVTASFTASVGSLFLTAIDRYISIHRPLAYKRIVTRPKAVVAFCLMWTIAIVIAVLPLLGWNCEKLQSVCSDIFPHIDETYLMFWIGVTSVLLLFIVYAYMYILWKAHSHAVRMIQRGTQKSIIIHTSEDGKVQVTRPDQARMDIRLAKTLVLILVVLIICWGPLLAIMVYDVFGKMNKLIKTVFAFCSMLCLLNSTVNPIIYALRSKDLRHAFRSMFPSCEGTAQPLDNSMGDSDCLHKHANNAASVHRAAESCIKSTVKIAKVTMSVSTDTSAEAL
Label 1 when Ki is strictly below 200 nM; at or above that, label 0.

1. CCCn1cc(C(=O)c2ccc(Br)c3ccccc23)c2ccccc21: 1
2. CCCCCn1cc(C(=O)c2ccc(I)c3ccccc23)c2ccccc21: 1
3. CCCn1c(C)c(C(=O)c2cccc3cccc(I)c23)c2ccccc21: 0
4. CCCCCn1c(C)c(C(=O)c2ccc(F)c3ccccc23)c2ccccc21: 1
5. CCCn1cc(C(=O)c2cccc3cccc(Br)c23)c2ccccc21: 0
6. CCCCCn1cc(C(=O)c2cccc3cccc(Br)c23)c2ccccc21: 1
7. CCCn1cc(C(=O)c2ccc(I)c3ccccc23)c2ccccc21: 1
8. CCCCCn1c(C)c(C(=O)c2ccc(I)c3ccccc23)c2ccccc21: 1
9. CCCn1c(C)c(C(=O)c2cccc3cccc(Cl)c23)c2ccccc21: 0
10. CCCn1c(C)c(C(=O)c2cccc3cccc(Br)c23)c2ccccc21: 0
11. CCCCCn1cc(C(=O)c2ccc(F)c3ccccc23)c2ccccc21: 1
12. CCCCCn1cc(C(=O)c2cccc3cccc(I)c23)c2ccccc21: 1
13. CCCCCn1cc(C(=O)c2ccc(Cl)c3ccccc23)c2ccccc21: 1
14. CCCn1cc(C(=O)c2ccc(F)c3ccccc23)c2ccccc21: 0
15. CCCn1cc(C(=O)c2cccc3cccc(Cl)c23)c2ccccc21: 0
16. CCCCCn1c(C)c(C(=O)c2ccc(Cl)c3ccccc23)c2ccccc21: 1
17. CCCn1c(C)c(C(=O)c2ccc(F)c3ccccc23)c2ccccc21: 0
18. CCCCCn1cc(C(=O)c2ccc(Br)c3ccccc23)c2ccccc21: 1
19. CCCCCn1c(C)c(C(=O)c2cccc3cccc(I)c23)c2ccccc21: 0
20. CCCn1c(C)c(C(=O)c2ccc(I)c3ccccc23)c2ccccc21: 0
21. CCCCCn1c(C)c(C(=O)c2ccc(Br)c3ccccc23)c2ccccc21: 1
22. CCCn1c(C)c(C(=O)c2ccc(Cl)c3ccccc23)c2ccccc21: 1
